- Tested on: A498 renal
- methodNotes: NCI tumour cell line growth inhibition, 48 h

compound | measuredOn | TGI
CCOc1cc(/C=N/c2nc3cc4sc(/N=C/c5ccc(O)c(OCC)c5)nc4cc3s2)ccc1O | A498 renal | > 100 µM
O=C(O)C1CC(C2CCCCN2)CN2CCCCC12 (stereo not given) | A498 renal | > 100 µM
COC(=O)C(=NNc1ccccc1[N+](=O)[O-])C(=O)OC | A498 renal | > 100 µM
CCc1cccc(C)c1N1C(=O)C(=O)C(c2nc3ccccc3o2)/C(=N/NC(=S)NN)C1=O (stereo not given) | A498 renal | > 100 µM
CCC(C)C(=O)O[C@H]1C(=O)O[C@@H]2C[C@H]3C(C)=CC(=O)[C@@H](O)[C@]3(C)[C@H]3[C@@H](O)[C@H](O)[C@@]4(C)OC[C@]32[C@@H]14 (stereo not given in full) | A498 renal | < 0.01 µM

====

- Test system: SW-620 colon
- methodNotes: NCI tumour cell line growth inhibition, 48 h

smilesRecord | GI50
C[C@]12CCCN1CC1=NNC(=O)c3cc(F)cc4[nH]c2c1c34 | 16.7 µM
NS(=O)(=O)c1ccc(N=Nc2c(O)[nH]c3ccc(C(=O)NCCc4cnc[nH]4)cc23)cc1 | > 25 µM
CCC(CC)c1cc(N[C@H]2CC[C@H](N)C2)n2nccc2n1 | 0.626 µM
C=C1C(=O)O[C@@H]2C[C@@H]1CC[C@]1(C)O[C@H]1CC/C(C)=C/CC[C@@]2(C)O | 15.8 µM

====

- System: HOP-18 NSCLC
- methodNotes: NCI tumour cell line growth inhibition, 48 h

molecule | TGI
CC(=O)n1nnc2ccc([N+](=O)[O-])cc21 | > 100 µM
O=C(O)CCC(=O)Oc1ccc(O)c2c1CCCC2=O | > 100 µM
Cc1ccc(NC(=O)CCc2nnc3s/c(=C\c4cccc([N+](=O)[O-])c4)c(=O)n23)cc1 | > 100 µM
N.N.N.N.N.N#Cc1nn[n-]n1.[Cl-].[Co+3] | > 100 µM
N#CCCN(C1=NN(C(=O)CC(=O)Nc2ccc(Cl)cc2)C(c2ccccc2)C1)c1ccc(Cl)cc1 (stereo unspecified) | > 100 µM
CC1(CO)C(O)CCC2(C)C1C(O)CC1CC3CC12CCC3(O)CO (stereo unspecified) | > 225 µM

====

- System: T-47D breast
- methodNotes: NCI tumour cell line growth inhibition, 48 h
Reported values of TGI for individual entries

smilesRecord | measuredOn | TGI
CN1C(=O)/C(=C2\S/C(=N\c3nnc(-c4ccccc4)o3)NC2=O)c2ccccc21 | T-47D breast | > 100 µM
COc1ccc(NC(=S)C#N)cc1 | T-47D breast | > 100 µM
CCN(CC)C(=S)/N=C(\SC(=S)N(CC)CC)c1ccccc1 | T-47D breast | > 100 µM

====

TGI values by entry
- System: PC-3 prostate
- methodNotes: NCI tumour cell line growth inhibition, 48 h

compound | TGI
CC(C)(C)C(O)CC(O)(C(F)(F)F)C(F)(F)F (stereo not drawn) | > 100 µM
O=c1oc2ccc3ccccc3c2cc1-c1nc(-c2ccc([N+](=O)[O-])cc2)n[nH]1 | > 100 µM
COC(O)C(=O)c1c2c(cc3c1CCC3)CCC2 (stereo not drawn) | > 100 µM

====

- System: SF-295 CNS
- methodNotes: NCI tumour cell line growth inhibition, 48 h
Listed next: entries and their corresponding GI50.

smilesRecord | GI50
Fc1ccc(Nc2ncc(-c3cc(F)c(Cl)cc3Cl)s2)cc1Cl | 15.9 µM
Cc1cc(O[C@@H]2O[C@@H](C)[C@H](O)[C@@H](O)[C@H]2O)c2c3c(c(O[C@@H]4O[C@@H](C)[C@H](O)[C@@H](O)[C@H]4O)cc2c1)C(=O)c1c(O)cccc1C3=O | > 30 µM
CON=C1C[C@]2(C[C@@H]3C[C@@H](C/C=C(\C)C[C@@H](C)/C=C/C=C4\CO[C@@H]5[C@H](O)C(C)=C[C@@H](C(=O)O3)[C@]45O)O2)O[C@H](/C(C)=C/C(C)C)[C@H]1C | 9.16 µM
O=C(NCCCl)NCCN1c2nc3ccccc3cc2Sc2cc3ccccc3nc21 | 0.569 µM
Cc1ccc(S(=O)(=O)OCC(=O)Nc2ccc(C(=O)O)c(O)c2)cc1 | 167 µM
CCNC(=O)Oc1ccc(/C(=C(\C)c2ccc(Cl)cc2)c2ccc(OCCN(CC)CC)cc2)cc1 | 1.85 µM

====

- System: NCI-H460 lung
- methodNotes: NCI tumour cell line growth inhibition, 48 h; in the data active means GI50 below about 0.43 µM; inactive means the rest
Outcome codes: class 1 for active, class 0 for inactive

compound | class
O=C(O)c1ccc(NCc2nc3ccccc3[nH]2)cc1 | class 0
[N-]=[N+]=NCCCn1c2c(c3ccc([N+](=O)[O-])cc3c1=O)C(=O)c1cc(I)ccc1-2 | class 0
C=C1C[C@@H](O)[C@@H](Br)C(C)(C)[C@]12CCC(C)(Br)C(Cl)C2 (stereo not given in full) | class 0
CC[O-].CC[O-].COc1ccc(C(=O)[CH-]C(C)=O)cc1OC.COc1ccc(C(=O)[CH-]C(C)=O)cc1OC.[Ti+4] | class 0
Cc1ccc(S(=O)(=O)OCC(=O)Nc2ccc(C(=O)O)c(O)c2)cc1 | class 0
Cc1cc(I)cc(CNCCN2CCOCC2)c1O | class 0
CCCCCCCCCCCCNC(=O)N[C@H](C(=O)N[C@H]1/C=C/CCNC(=O)/C=C/[C@H](C)NC1=O)C(C)C | class 1
O=C(NCCCl)NCCN1c2nc3ccccc3cc2Sc2cc3ccccc3nc21 | class 0
COc1ccc(N=N/C(=N\NC(=O)c2cc(Br)ccc2O)c2ccc(N(CCC#N)CCC#N)cc2OC)cc1 | class 0
Cc1cc(O[C@@H]2O[C@@H](C)[C@H](O)[C@@H](O)[C@H]2O)c2c3c(c(O[C@@H]4O[C@@H](C)[C@H](O)[C@@H](O)[C@H]4O)cc2c1)C(=O)c1c(O)cccc1C3=O | class 0

====

TGI values by entry
- Tested on: SK-MEL-5 melanoma
- methodNotes: NCI tumour cell line growth inhibition, 48 h
Where a SMILES comes first, the peptide text is derived from it. The star is where a group is joined. Boc = CC(C)(C)OC(=O)*

compound | TGI
COC(O)C(=O)c1c2c(cc3c1CCC3)CCC2 (stereo not given) | > 100 µM
COc1cc(-c2cc(-c3cccs3)c(C#N)c(N3CCOCC3)n2)cc(OC)c1OC | > 100 µM
Cc1cc(O)c2c(c1)C(C1OC(CO)C(O)C(O)C1O)c1cc(O)cc(O)c1C2=O (stereo not given) | > 100 µM
Cc1cc2nc3c(=O)[nH]c(=O)nc-3n(CC(O)C(O)C(O)CO)c2cc1N (stereo not given) | > 100 µM
COc1ccc2nc3c(C)cc4ccccc4n3c2c1 | > 100 µM
Cc1c2oc3c(C)cnc(C(=O)NC4C(=O)NC(C(C)C)C(=O)N5CCCC5C(=O)N(C)CC(=O)N(C)C(C(C)C)C(=O)OC4C)c3nc-2c(C(=O)NC2C(=O)NC(C(C)C)C(=O)N3CCCC3C(=O)N(C)CC(=O)N(C)C(C(C)C)C(=O)OC2C)c(N)c1=O (stereo not given) | 21.6 µM
NC(=O)c1cc(I)ccc1NC(=O)/C=C/c1ccccc1Cl | 13 µM
O=C(CCc1ccc(O)c(O)c1)NCCc1ccccc1 | > 48.7 µM
CC(=O)Nc1ncc2c(n1)-c1ccccc1OC2c1ccccc1 (stereo not given) | > 100 µM
CC(NC(=O)C1CCCN1C(=O)CNC(=O)OC(C)(C)C)C(=O)O (stereo not drawn) (Boc-Gly-Pro-Ala-OH; configuration not given here) | > 100 µM
CN1C(=O)/C(=C2\S/C(=N\c3nnc(-c4ccccc4)o3)NC2=O)c2ccccc21 | > 100 µM
CC(C)(C)C(O)CC(O)(C(F)(F)F)C(F)(F)F (stereo not given) | > 100 µM
N.N.N.N.N.N#Cc1nn[n-]n1.[Cl-].[Co+3] | > 100 µM
Cc1nn(C(=O)c2ccc(Cl)cc2)c2c1C(c1ccccc1O)SC(N)=N2 (stereo not given) | > 10 µM
CCCCC(O)(c1ccccc1)C(O)(c1ccccc1)c1c(F)c(F)c(F)c(F)c1F (stereo not given) | 35.5 µM
C=C[C@]1(C)CC(=O)C(C(C)C=O)[C@]12C(=O)Oc1cccc(C)c1C2=O (stereo not given in full) | 25.9 µM
CCSc1nc(NC(C)c2ccccc2)c2cnn(CO)c2n1 (stereo not given) | 25.9 µM
COC(=O)C(=O)C(C#N)c1cccc(Cl)c1 (stereo not given) | > 100 µM
COc1cccc(N2C(=O)/C(=C/c3ccc(N(CCC#N)CCC#N)cc3)N=C2c2cc([N+](=O)[O-])ccc2Cl)c1 | > 100 µM
O=C1C=CC(=O)c2c(O)c(NCCO)c(Cl)c(O)c21 | 2.75 µM
O=c1c2ccccc2nc2n1CCc1c-2[nH]c2cc3c(cc12)OCO3 | > 25 µM
O=C(CN(Cc1ccccc1)Cc1ccccc1)N1CCc2c([nH]c3ccccc23)C1c1cccnc1 (stereo not given) | 20.1 µM
NC1=NCC(CN2CCCCC2)O1 (stereo not given) | > 100 µM
COc1cccc(C2c3cc4c(cc3OC(NNC(N)=O)C2C)OCO4)c1O (stereo not given) | 8.54 µM
O=c1ccn(Cc2ccccc2CCl)c(=O)[nH]1 | 23.3 µM
